SYSTEM_UNDER_TEST: full-length human GLP-1R with an N-terminal FLAG tag (human, UniProt P43220 24-463)
PROCEDURE_SUMMARY: cell-based or functional assay
Non-standard residues stand in square brackets, D forms with d. Groups on a side chain read outwards from the residue. No end group written: not given here. *: point of attachment. C18 diacid = O=C(O)CCCCCCCCCCCCCCCCC(=O)*; NMeY = CN[C@@H](Cc1ccc(O)cc1)C(=O)O; Aib = CC(C)(N)C(=O)O
VALUE_TYPE: Human GLP1R cAMP EC50, HEK293T (nM)
Report only the number, with the unit nM understood.

Examples with their reported Human GLP1R cAMP EC50, HEK293T follow.
YXEGTFISDYSIAXDRXAQXDFVEWLLAQSPG (N-methyl Tyr 1; Aib at 2,17,20; Lys(G5-C18 diacid) at 14; C-terminal OH) [Compound No. 118]: 91.2
YXEGTFISDYSIAXDRXAQXDFVNWLLAQQG (N-methyl Tyr 1; Aib at 2,17,20; Lys(G5-C18 diacid) at 14; C-terminal OH) [Compound No. 82]: 17.4
YXEGTFISDYSIAXDRXAQXDFVEWLLAQRG (N-terminus H; Aib at 2,17,20; Lys(G5-C18 diacid) at 14; C-terminal OH) [Compound No. 144]: 15.1
YXEGTFISDYSIXLDSXAQXDFVNWLLAQRG (N-methyl Tyr 1; Aib at 2,13,20; Lys(G6-C18 diacid) at 17; C-terminal OH) [Compound No. 64]: 110

Input: Entry YXEGTFISDYSIAXDKXAQXDFVNWLLAQKG (N-methyl Tyr 1; Aib at 2,17,20; Lys(G5-C18 diacid) at 14; C-terminal OH) [Compound No. 76] has what Human GLP1R cAMP EC50, HEK293T?
Output: 28.8

Input: Entry [NMeY][Aib]EGTFISDYSI[Aib]LDR[Aib]AQ[Aib]K([2OEGgEgE-C18 diacid])FVNWLLAQRPSSGAPPPS-NH2 [Compound No. 89] has what Human GLP1R cAMP EC50, HEK293T?
Output: 42.7
